Some binders, each annotated with its measured pKd.
Molecular target: T1, cynomolgus monkey TG2 (cynomolgus monkey, UniProt A0A2K5VXI8 1-687)
T1 construct: Bought recombinant protein; also called cynomogulus monkey TG2; cyano TG2
T1 sequence: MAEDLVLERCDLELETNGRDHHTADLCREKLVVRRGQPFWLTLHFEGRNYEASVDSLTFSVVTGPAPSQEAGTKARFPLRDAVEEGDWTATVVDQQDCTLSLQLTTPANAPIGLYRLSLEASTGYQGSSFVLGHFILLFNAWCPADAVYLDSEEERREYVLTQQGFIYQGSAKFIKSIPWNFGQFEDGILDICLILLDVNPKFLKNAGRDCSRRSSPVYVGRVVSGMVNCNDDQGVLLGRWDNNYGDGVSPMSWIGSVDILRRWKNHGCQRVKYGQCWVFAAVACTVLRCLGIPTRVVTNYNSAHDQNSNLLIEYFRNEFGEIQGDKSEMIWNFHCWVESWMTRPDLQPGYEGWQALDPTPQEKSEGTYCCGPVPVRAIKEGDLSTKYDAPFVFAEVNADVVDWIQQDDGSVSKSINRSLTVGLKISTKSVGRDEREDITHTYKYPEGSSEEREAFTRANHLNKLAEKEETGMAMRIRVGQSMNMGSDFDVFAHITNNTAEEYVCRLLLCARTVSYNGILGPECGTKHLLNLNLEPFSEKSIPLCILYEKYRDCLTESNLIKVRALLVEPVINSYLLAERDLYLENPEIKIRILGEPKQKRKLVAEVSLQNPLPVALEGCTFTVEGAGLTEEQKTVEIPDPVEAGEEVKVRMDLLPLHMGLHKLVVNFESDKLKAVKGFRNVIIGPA
Assay: SPR (Biacore T200), antibody captured on anti-human IgG1 Fc chip, TG2 injected; calcium condition not marked in the row
Field pKd (float): negative decimal logarithm of the concentration in molar.

Binder | pKd
hAB004 (hAB001AE) humanised AB1 antibody (antibody, V domains shown, they were captured by anti-human IgG1 (Fc); also called Heavy Chain version RHA with Light Chain version RKE) VH: EVQLLESGGGLVQPGGSLRLSCAASGFTFSSSAMSWVRQAPGKGLEWVSTISVGGGKTYYPDSVKGRFTISRDNSKNTLYLQMNSLRAEDTAVYYCAKLISLYWGQGTLVTVSS VL: EIVLTQSPSSLSASVGDRVTITCKASQDINSYLTWYQQKPGKAPKLLIYRTNRLFDGVPSRFSGSGSGTDFFFTISSLQPEDFGTYYCLQYDDFPYTFGGGTKLEIK | 9.96

Notebook: hAB005 (hAB001AJ) humanised AB1 antibody (antibody, V domains shown, captured by anti-human IgG1 (Fc); also called Heavy Chain version RHA with Light Chain version RKJ) VH: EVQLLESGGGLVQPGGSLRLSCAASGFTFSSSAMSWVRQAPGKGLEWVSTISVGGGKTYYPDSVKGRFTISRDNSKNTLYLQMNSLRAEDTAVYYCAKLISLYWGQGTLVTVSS VL: DIQMTQSPSSLSASVGDRVTITCKASQDINSYLTWFQQKPGKAPKSLIYRTNRLFDGVPSRFSGSGSGTDFFLTISSLQPEDFATYYCLQYDDFPYTFGQGTKVEIK , pKd read as 9.62

Notebook: hBB001BB humanised BB7 antibody (antibody, V domains shown, BB is read as heavy chain hBB001HB (BB7_RHB) with kappa chain hBB001KB (BB7_RKB)) VH: EVQLLESGGGLVQPGGSLRLSCAASGIIFSSSAMSWVRQAPGKGLEWVATISSGGRSTYYPDSVKGRFTVSRDSSKNTLYLQMNSLRAEDTAVYYCAKLISPYWGQGTLVTVSS VL: DIKMTQSPSSLSASVGDRVTITCKASQDINSYLTWFQQKPGKAPKTLIYLTNRLMDGVPSRFSGSGSGQEFLLTISSLQPEDFATYYCLQYVDFPYTFGQGTKVEIK , pKd read as 9.85
